Entry source: patent US4310590A

- Test system: Ps. aeruginosa
- Experimental protocol: Serial Dilution Test (Broth Titer Test), antibacterial, Ps. aeruginosa
- Format: cell-based, Pseudomonas aeruginosa
- Test conditions: Pseudomonas aeruginosa, read-out: SDT, MIC
Property label: MIC

>  <Compound>
CN(C)C(=S)Sc1cc(=O)n(C)s1

>  <MIC>
> 500 µg/mL

$$$$
>  <Compound>
Cc1c(SC(=S)N(C)C)sn(-c2ccccc2)c1=O

>  <MIC>
> 500 µg/mL

$$$$
>  <Compound>
Cc1c(SC(=S)N(C)C)sn(C2CCCCC2)c1=O

>  <MIC>
500 µg/mL

$$$$

Let us move to another entry and its MIC.
Looking for the measured MIC of O=c1cc(N2CCCCC2)sn1CCc1ccccc1 , can you help?
500 µg/mL

* * *

- Test system: Puccinia graminis f. sp. tritici
- Experimental protocol: whole plant or invertebrate
- Type: in vivo, Puccinia graminis f. sp. tritici race 15B-2
- Test conditions: 150 ppm; wheat seedlings
Property label: Disease Control Level, WSR

Here's what some known entries look like.
>  <Compound>
Cc1c(SC(=S)N(C)C)sn(-c2ccc(Br)cc2)c1=O [Example 8]

>  <Property label>
Disease Control Level, WSR

>  <Result>
C/C

$$$$
>  <Compound>
CN(C)C(=S)Sc1cc(=O)n(CCc2ccccc2)s1 [Example 4]

>  <Property label>
Disease Control Level, WSR

>  <Result>
E/E

$$$$
>  <Compound>
CN(C)C(=S)Sc1cc(=O)n(C)s1 [Example 5]

>  <Property label>
Disease Control Level, WSR

>  <Result>
C/E

$$$$
>  <Compound>
Cn1sc(SC(=S)N2CCCC2)cc1=O [Example 13]

>  <Property label>
Disease Control Level, WSR

>  <Result>
C/E

$$$$

Let us move to another entry and its Disease Control Level, WSR.
Looking for the measured Disease Control Level, WSR of CN(C)C(=S)Sc1cc(=O)n(Cc2ccccc2)s1 [Example 1] , can you help?
C/C

* * *

Attribute: pest or weed control at 38 ppm
- Test system: Botrytis cinerea
- Experimental protocol: whole plant or invertebrate
- Assay type: in vivo
- Test conditions: Botrytis cinerea; 38 ppm; read-out: Disease Control Level, BOT

>  <Compound>
CN(C)C(=S)Sc1cc(=O)n(C)s1

>  <Result>
90 to 96%

$$$$
>  <Compound>
Cn1sc(SC(=S)N2CCCC2)cc1=O

>  <Result>
70 to 89%

$$$$
>  <Compound>
CN(C)C(=S)Sc1cc(=O)n(CCc2ccccc2)s1

>  <Result>
90 to 96%

$$$$
>  <Compound>
Cc1c(SC(=S)N(C)C)sn(-c2ccccc2)c1=O

>  <Result>
70 to 89%

$$$$

Looking for the measured pest or weed control at 38 ppm of CN(C)C(=S)Sc1cc(=O)n(Cc2ccccc2)s1 , can you help?
70 to 89%

* * *

Attribute: pest or weed control at 75 ppm
- Test system: Botrytis cinerea
- Experimental protocol: whole plant or invertebrate
- Format: in vivo
- Test conditions: Botrytis cinerea; 75 ppm; read-out: Disease Control Level, BOT

Here's what some known entries look like.
>  <Compound>
CN(C)C(=S)Sc1cc(=O)n(C)s1

>  <Target or test system>
Botrytis cinerea

>  <pest or weed control at 75 ppm>
97 to 100%

$$$$
>  <Compound>
Cc1c(SC(=S)N(C)C)sn(-c2ccccc2)c1=O

>  <Target or test system>
Botrytis cinerea

>  <pest or weed control at 75 ppm>
90 to 96%

$$$$
>  <Compound>
Cn1sc(SC(=S)N2CCCC2)cc1=O

>  <Target or test system>
Botrytis cinerea

>  <pest or weed control at 75 ppm>
70 to 89%

$$$$
>  <Compound>
CN(C)C(=S)Sc1cc(=O)n(CCc2ccccc2)s1

>  <Target or test system>
Botrytis cinerea

>  <pest or weed control at 75 ppm>
90 to 96%

$$$$

Looking for the measured pest or weed control at 75 ppm of CN(C)C(=S)Sc1cc(=O)n(Cc2ccccc2)s1 , can you help?
70 to 89%
